test: Antioxidant activity assessed as superoxide anion radical scavenging activity by nitroblue tetrazolium method; assay type: physicochemical
Let's look at some compounds and their measured IC50.
Your answer should be a plain number; it is taken to be in µM.

>  <Compound Structure String>
Cc1cccc2nc(-c3ccc(C(=O)N/N=C/c4ccc(O)cc4)cc3)[nH]c12

>  <IC50 / µM>
101

$$$$
>  <Compound Structure String>
Cc1cccc2nc(-c3ccc(C(=O)N/N=C/c4ccc(O)c(O)c4)cc3)[nH]c12

>  <IC50 / µM>
81

$$$$
>  <Compound Structure String>
Cc1ccccc1/C=N/NC(=O)c1ccc(-c2nc3cccc(C)c3[nH]2)cc1

>  <IC50 / µM>
340

$$$$
>  <Compound Structure String>
COc1ccc(/C=N/NC(=O)c2ccc(-c3nc4cccc(C)c4[nH]3)cc2)cc1O

>  <IC50 / µM>
222

$$$$

Q: Returns the measured IC50 for the input compound. Input: "Cc1cccc2nc(-c3ccc(C(=O)N/N=C/c4ccc([N+](=O)[O-])cc4)cc3)[nH]c12"
Result: 312
